- Tested on: MDA-MB-435
- TEST_METHOD_NOTES: NCI tumour cell line growth inhibition, 48 h
Where a SMILES comes first, the peptide text is derived from it. [ ]: non-standard residue; d: D form. Ac5c = NC1(C(=O)O)CCCC1
READOUT_KIND: TGI

MOLECULE	MEASUREMENT_TARGET	READOUT_KIND	ASSAY_VALUE
c1ccc2c(c1)CCN2CCN1CCc2ccccc21	MDA-MB-435	TGI	> 10 µM
CCOC(=O)/C(SC#N)=C(/N)N1CCCC1	MDA-MB-435	TGI	> 100 µM
COC(=O)C1(NC(=O)C(C)NC(=O)C(CCCCN)NC(=O)C(CC(C)C)NC(C)=O)CCCC1 (stereo not given) (Ac-LKA[Ac5c]-OMe; configuration not given here)	MDA-MB-435	TGI	> 100 µM
CCCNc1[nH]c(C(=O)c2ccccc2)c(N)c1C(=S)Nc1ccccc1	MDA-MB-435	TGI	> 100 µM

Next molecule, TGI to be filled in.
Q: Suppose we examine the molecule "Oc1cccc(-c2nc(-c3n[nH]c(=S)n3-c3ccccc3)cc3c2[nH]c2ccccc23)c1" ; what TGI value has been reported?
Ans: 4.5 µM
